target: T1, recombinant human 4-1BB extracellular domain protein (human, UniProt Q07011 24-186); experiment: Octet, binding off-rate kdis; the sheet names no species of 41BB, paragraph 86: 'binding to human and recombinant 4-1BB by octet assay'
T1 construct: extracellular domain; Analyte in the Octet assay; also called CD137; TNFRSF9
Measured koff values are reported for all entries that follow.
All answers are understood in s⁻¹, so give the number only.

Some binders with known koff results, for comparison:
460C3 VHv1VLv1 (antibody, human IgG1, kappa, V domains shown, one of the humanized antibodies; also called 460C3 humanized) VH: EVQLLESGGGLVQPGGSLRLSCAASGIDFSRRYYMCWVRQAPGKGLEWIACIYTGSRDTPHYASSAKGRFTISRDNSKNTLYLQMNSLRAEDTAVYYCAREGSLWGQGTLVTVSS VL: DIQMTQSPSTLSASVGDRVTITCQSSQSVYSNWFSWYQQKPGKAPKLLIYSASTLASGVPSRFSGSGSGTEFTLTISSLQPDDFATYYCAGGYNTVIDTFAFGGGTKVEIKR
0.000728
416G1 VHv1VLv1 (antibody, human IgG1, kappa, V domains shown, one of the humanized antibodies; also called 416G1 humanized) VH: EVQLVESGGGLVQPGGSLRLSCAASGFTINSYHMIWVRQAPGKGLEYIGFINDGGFTYYASSAKGRFTISRDNSKNTLYLQMNSLRAEDTAVYYCARGVDGTSYPDLWGQGTLVTVSS VL: DVVMTQSPSSVSASVGDRVTITCQASQSIGSDLAWYQQKPGKAPKLLIYRASTLASGVPSRFSGSGSGTDFTLTISSLQPEDFATYYCQSIYYGSDDVIYHTFGGGTKVEIKR
0.00166
411H11 VHv1VLv1 (antibody, human IgG1, kappa, V domains shown, one of the humanized antibodies; also called 411H11 humanized) VH: EVQLVESGGGLVQPGGSLRLSCAASGFTISSHHMIWVRQAPGKGLQYIGFINDGDYTYYTNSAKGRFTISRDNSKNTLYLQMNSLRAEDTAVYYCARGVDGTSYPGLWGQGTLVTVSS VL: DVVMTQSPSSVSASVGDRVTITCQASQSIGADLAWYQQKPGKAPKLLIYRASTLASGVPSRFSGSGSGTDFTLTISSLQPEDFATYYCQAIYYGTDDVIYHTFGGGTKVEIKR
0.00179
413F3 VHv1VLv1 (antibody, human IgG1, kappa, V domains shown, one of the humanized antibodies; also called 413F3 humanized) VH: EVQLVESGGGLVQPGGSLRLSCAASGIDFSSNYMCWVRQAPGKGLEWIACIYGDSSDNSYSASSAKGRFTISRDNSKNTLYLQMNSLRAEDTAVYYCARSGYSYLGYFNLWGQGTLVTVSS VL: DIQMTQSPSSLSASVGDRVTITCQASQSIYSNLAWYQQKPGKVPKLLIYSTSTLASGVPSRFSGSGSGTDFTLTISSLQPEDVATYYCQNYYGSSTDSYGNPFGGGTKVEIKR
0.00224

input: Would you mind telling me what koff value was observed for 419D9 VHv3VLv3 (antibody, human IgG1, kappa, V domains shown, one of the humanized antibodies; also called 419D9 humanized) VH: EVQLLESGGGLVQPGGSLRLSCTASGFSFSSRHYMCWVRQAPGKGLEWIACIYTGSSGTPHYASSAKGRFTISQDNSKNTVTLQMNSLRAEDTAVYYCAREGNLWGQGTLVTVSS VL: DIQMTQSPSTLSASVGDRVTITCQSSQSVYSNWLSWYQQKPGKAPKRLIYSASTLASGVPSRFSGSGSGTEFTLTISSLQPDDFATYYCAGGYNTVTDTFAFGGGTKVEIKR ?
output: 0.00284

input: Which value of koff has been reported for 416F8 VHv3VLv1 (antibody, human IgG1, kappa, V domains shown, one of the humanized antibodies; also called 416F8 humanized) VH: QSLVESGGGLVQPGGSLRLSCAASGFSLSNYYMNWVRQAPGKGLEYIGIISSSGSAYYASSAKGRFTISRDNSKNTLYLQMNSLRAEDTAVYYCARGDYGMDLWGQGTLVTVSS VL: DIQMTQSPSSLSASVGDRVTITCQSSQTVYNNNLLSWYQQKPGKVPKLLIYYASTLAFGVPSRFSGSGSGTDFTLTISSLQPEDVATYYCQGGYSGWIYVFGGGTKVEIKR in the records?
output: 0.00645

input: # query: koff of entry 418E10 VHv1VLv1 (antibody, human IgG1, kappa, V domains shown, one of the humanized antibodies; also called 418E10 humanized) VH: EVQLVESGGGLVQPGGSLRLSCAASGFSLSTYYMSWVRQAPGKGLEWIGSIYDSGAAYYATSAKGRFTISRDNSKNTLYLQMNSLRAEDTAVYYCARDPINNAIWGQGTLVTVSS VL: DIQMTQSPSTLSASVGDRVTITCQASQSIGSNLNWYQQKPGKAPKLLIYYVSTLASGVPSRFSGSGSGTEFTLTISSLQPDDFATYYCLGVWNYWGDDGTAFGGGTKVEIKR
output: 0.000958

input: Field request: koff | item: 459F1 VHv1VLv1 (antibody, human IgG1, kappa, V domains shown, one of the humanized antibodies; also called 459F1 humanized) VH: EVQLLESGGGLVQPGGSLRLSCAASGIDFSRRYYMCWVRQAPGKGLEWIACMYTGSRDTPHYASSAKGRFTISRDNSKNTLYLQMNSLRAEDTAVYYCAREGNLWGQGTLVTVSS VL: DIQMTQSPSTLSASVGDRVTITCQSSQSVYSNWFSWYQQKPGKAPKLLIYSASTLASGVPSRFSGSGSGTEFTLTISSLQPDDFATYYCAGGYNTVTDTFAFGGGTKVEIKR
output: 0.00131

input: Need koff of 418H5 VHv2VLv1 (antibody, human IgG1, kappa, V domains shown, one of the humanized antibodies; also called 418H5 humanized) VH: EVQLVESGGGLVQPGGSLRLSCTASGIDLSAYHMSWVRQAPGKGLEYIGMIGSSGTIHYANSAKGRFTISKDNTKNTVDLQMNSLRAEDTAVYYCARDSYNSDYAFNLWGQGTLVTVSS VL: DIQMTQSPSSVSASVGDRVTITCQSSPSVYKNNQLAWYQQKPGKAPKLLIYLASTLASGVPSRFSGSGSGTDFTLTISSLQPEDFATYYCAGGYSSSSDTAFGGGTKVEIKR , thanks.
output: 0.00245

input: Please look up its koff: 470C6 VHv3VLv3 (antibody, human IgG1, kappa, V domains shown, one of the humanized antibodies; also called 470C6 humanized) VH: QSLVESGGGLVQPGGSLRLSCAASGFSFTSSYYMCWVRQAPGKGLEWIACIYTGSSGSTYYANSAKGRFTISRDNSKNTLYLQMNSLRAEDTAVYYCARDSSSYYMFNLWGQGTLVTVSS VL: ALVMTQSPSTLSASVGDRVTINCQASEDIDNYLAWYQQKPGKAPKLLIFYASDLASGVPSRFSGSGSGTEFTLTISSLQPDDFATYYCQGGYYTSSTDTRGAFGGGTKVEIKR
output: 0.00183

input: So what does the record say about koff for 420H5 VHv3VLv3 (antibody, human IgG1, kappa, V domains shown, one of the humanized antibodies; also called 420H5 humanized) VH: QSLVESGGGLVQPGGSLRLSCAASGFSFSSNYWICWVRQAPGKGLEWIACIYVGSSGDTYYASSAKGRFTISRDNSKNTLYLQMNSLRAEDTAVYYCARDSSSYYMFNLWGQGTLVTVSS VL: ALVMTQSPSTLSASVGDRVTINCQASEDIDTYLAWYQQKPGKAPKLLIFYASDLASGVPSRFSGSGSGTEFTLTISSLQPDDFATYYCQGGYYTSSADTRGAFGGGTKVEIKR ?
output: 0.00178

This collection of values is drawn from patent US20210188989A1.
